Would you mind telling me the reported pIC50 of each entry?
Tested on: carcinoma cell lines
Experiment: 72-h MTT panel, average carcinomas
Assay type: cell-based
Settings: Homo sapiens, average over carcinoma cell lines, read-out: Anti-proliferative activity, 72-h MTT IC50, Average carcinomas
Protocol: Representative bisarylsulfonamide compounds were tested on a panel of transformed and non-transformed human cell lines, using a standard 72-h MTT cytotoxicity assay [Haselsberger K et al, ibid]. This differential selectivity further supports the notion that the bisarylsulfonamides modulate cellular HDM2 function. […]
Would you please state pIC50, meaning minus log10 of the concentration in mol/L, as a bare number?

Requested read-out pIC50, target or system carcinoma cell lines, entry O=[N+]([O-])c1cc(S(=O)(=O)Nc2ccc(C(F)(F)F)cc2)sc1Cl [Compound 6]
5.31

Give the reported pIC50 for CN(c1ccc(F)cc1)S(=O)(=O)c1cc([N+](=O)[O-])c(Cl)s1 [Compound 7] (system: carcinoma cell lines).
5.01

Given the entry O=[N+]([O-])c1cc(S(=O)(=O)Nc2ccc(Cl)cc2)sc1Cl [Compound 2] , what pIC50 was observed with carcinoma cell lines?
5.51

Notebook: pull reported pIC50 for carcinoma cell lines, entry O=[N+]([O-])c1cc(S(=O)(=O)Nc2ccc(F)cc2)sc1Cl [Compound 3]
5.42

The values you see were collected from patent US20050215548A1.
